- TARGET DESC: 3-hydroxyacyl-CoA dehydrogenase type-2 (Homo sapiens)
- METHOD: qHTS Assay for Inhibitors of HSD17B4, hydroxysteroid (17-beta) dehydrogenase 4;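 also: the protocol describes HADH2 (HSD17B10) and not the HSD17B4 of the title; nearly all actives have a fitted effect of over 70% in size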
- SETUP CONDITIONS: recombinant HSD17B10, NADH fluorescence kinetic; series mostly up to 57.1 µM
In all, about 75,000 compounds went through this assay and about 5,700 (7.6%) were called active. About 7% were inconclusive and are not listed. Calls follow the shape of the dose curve; as a rule, active = well fitted inhibition curve with a large enough effect; inconclusive = small, poorly fitted or top-dose-only effect; inactive = no such curve, though single readings can be large or run the other way. Shown is part of a subset that was picked to be rich in actives.
Response enum: 1.0 for active, 0.0 for inactive

* O=C(O)C1CCN(c2ncnc3ccc(-c4ccccc4C(F)(F)F)cc23)CC1 | 0.0
* O=C(c1ccco1)N1CCC[C@@]2(CCN(c3ccccc3)C2)C1 | 0.0
* COCCCNC(=O)COc1cc(C)c(Cl)c(C)c1 | 0.0

For COC(=O)c1ccc(C2NC(=O)NC(C)=C2C(=O)N(C)C)cc1 (stereo unspecified) , which call appears in the assay record?
0.0

Please answer likewise for "CC(C)NC(=O)N1CC[C@@]2(CCCN(C(=O)c3ccco3)C2)C1"
0.0

Please answer likewise for "O=C(c1cc(C(F)(F)F)cc(C(F)(F)F)c1)N1CCC2(CC1)CN(c1ccncc1)C2"
0.0

Please answer likewise for "COc1ccc(C)cc1-n1nnnc1SCC(=O)c1cc(C)n(Cc2ccco2)c1C"
0.0

Please answer likewise for "COc1ccc2c(=O)cc(-c3ccccc3)oc2c1O"
0.0

Please answer likewise for O=C(C1CCCO1)N(Cc1ccccc1)c1ccccc1 (stereo unspecified)
0.0

Please answer likewise for "Cc1cccc(-c2cc(=O)c3cc(C)ccc3o2)c1"
1.0

Please answer likewise for "O=C(c1ccco1)N1CCC2(CC1)CCN(c1ncccn1)CC2"
1.0
